Listed here are compounds together with their documented % Inhibition by Rotenone.
- Test system: oxidative phosphorylation at site I (ETPH particles)
- PROCEDURE SUMMARY: Assay of CoQ and analogs for oxidative phosphorylation at site I with ETPH particles
- Assay type: biochemical
- TEST CONDITIONS: rotenone 2 μM; CoQ or analog 0.12 nM (footnote 0.12 mM)
Numbers only here, please. The scale is %.

- COMPOUND: "CCCCCC1=C(C)C(=O)C(OC)=C(OC)C1=O [Pentyl]"
  ASSAY SYSTEM: "oxidative phosphorylation at site I (ETPH particles)"
  UNIT LABEL: "%"
  REPORTED RESULT: 95
- COMPOUND: "COC1=C(OC)C(=O)C(C/C=C(\\C)CCC=C(C)C)=C(C)C1=O [Q2, reference compound]"
  ASSAY SYSTEM: "oxidative phosphorylation at site I (ETPH particles)"
  UNIT LABEL: "%"
  REPORTED RESULT: 92

Measured % Inhibition by Rotenone of COC1=C(OC)C(=O)C(CC=C(C)C)=C(C)C1=O [Q1, reference compound] : 93

Short answer for CCCCCCCCCCC1=C(C)C(=O)C(OC)=C(OC)C1=O [Decyl] : % Inhibition by Rotenone was 100
